Experimental system: KRAS G12C protein (GDP-KRAS-4B-G12C) (Homo sapiens, UniProt P01116, G12C)
Experiment description: Assay for binding rate to KRAS G12C protein by LC-MS method
Measurement setup: 3 uM compound, 30 min incubation at room temperature
Quantity name: Binding rate to KRAS G12C protein (LC-MS POC, %) 3 uM/30 min
Report the figure in % without appending any unit label.

C=CC(=O)N1CCN(c2nc(=O)n(-c3c(C)ccnc3C(C)C)c3c2cc(F)c(-c2ccccc2O)[n+]3[O-])[C@@H](C)C1 [SZ-014010A/B] ... 84.9

Exam item: Write Binding rate to KRAS G12C protein (LC-MS POC, %) 3 uM/30 min of C=CC(=O)N1CCN(c2nc(=O)n(-c3c(C(C)C)ncnc3C(C)C)c3c2cc(F)c(-c2c(F)cccc2F)[n+]3[O-])[C@@H](C)C1 ; system used: KRAS G12C protein (GDP-KRAS-4B-G12C) (Homo sapiens, UniProt P01116, G12C)
Marked response: 100.0

Exam item: Write Binding rate to KRAS G12C protein (LC-MS POC, %) 3 uM/30 min of C=CC(=O)N1CCN(c2nc(=O)n(-c3c(C)ccnc3C(C)C)c3c2cc(F)c(-c2ccccc2F)[n+]3[O-])[C@@H](C)C1 [SZ-014011A/B] ; system used: KRAS G12C protein (GDP-KRAS-4B-G12C) (Homo sapiens, UniProt P01116, G12C)
Marked response: 75.5

###

Catalogue of compounds with associated Binding rate to KRAS G12C protein (LC-MS POC, %) 3 uM/5 min
Experimental system: KRAS G12C protein (GDP-KRAS-4B-G12C) (Homo sapiens, UniProt P01116, G12C)
Experiment description: Assay for binding rate to KRAS G12C protein by LC-MS method
Measurement setup: 3 uM compound, 5 min incubation at room temperature
Report the figure in % without appending any unit label.

C=CC(=O)N1CCN(c2nc(=O)n(-c3c(C)ccnc3C(C)C)c3c2cc(F)c(-c2ccccc2O)[n+]3[O-])[C@@H](C)C1 [SZ-014010A/B] ... 47.7
C=CC(=O)N1CCN(c2nc(=O)n(-c3c(C)ccnc3C(C)C)c3c2cc(F)c(-c2ccccc2F)[n+]3[O-])[C@@H](C)C1 [SZ-014011A/B] ... 37.8

Exam item: Input C=CC(=O)N1CCN(c2nc(=O)n(-c3c(CC)ncnc3CC)c3c2cc(F)c(-c2c(F)cccc2F)[n+]3[O-])[C@@H](C)C1 [SZ-014119] , output reported Binding rate to KRAS G12C protein (LC-MS POC, %) 3 uM/5 min.
Marked response: 20.8

###

Experiment description: Plasma protein binding (PPB), RED plate dialysis, mouse plasma
Assay type: in vitro ADME
Measurement setup: 37° C., read-out: PPB (% free state) M
Ranges used to classify fraction unbound at 5 h, 1 μM: low bracket (below 0.008), middle bracket (0.008 to below 0.1), high bracket (0.1 or more)

C=CC(=O)N1CCN(c2nc(=O)n(-c3c(C)ccnc3C(C)C)c3nc(-c4c(O)cccc4F)c(F)cc23)[C@@H](C)C1 [SZ-014004A, reference compound] ... high bracket
C=CC(=O)N1CCN(c2nc(=O)n(-c3c(C(C)C)cccc3C(C)C)c3nc(-c4c(F)cccc4F)c(F)cc23)[C@@H](C)C1 [SZ-014139, reference compound] ... low bracket
C=CC(=O)N1CCN(c2nc(=O)n(-c3c(C(C)C)cccc3C(C)C)c3nc(-c4ccccc4)c(F)cc23)[C@@H](C)C1 [SZ-014142, reference compound] ... middle bracket
C=CC(=O)N1CCN(c2nc(=O)n(-c3c(C(C)C)ncnc3C(C)C)c3c2cc(F)c(-c2c(F)cccc2F)[n+]3[O-])[C@@H](C)C1 [SZ-014053] ... high bracket
C=C(F)C(=O)N1CCN(c2nc(=O)n(-c3c(C(C)C)ncnc3C(C)C)c3nc(-c4c(F)cccc4F)c(F)cc23)[C@@H](C)C1 [SZ-014137, reference compound] ... low bracket
C=CC(=O)N1CCN(c2nc(=O)n(-c3c(C(C)C)ncnc3C(C)C)c3c2cc(F)c(-c2ccccc2)[n+]3[O-])[C@@H](C)C1 [SZ-014129] ... high bracket
C=CC(=O)N1CCN(c2nc(=O)n(-c3c(C(C)C)cccc3C(C)C)c3c2cc(F)c(-c2ccccc2)[n+]3[O-])[C@@H](C)C1 [SZ-014130] ... middle bracket

Moving on to another compound below.
Exam item: For the record C=CC(=O)N1CCN(c2nc(=O)n(-c3c(C(C)C)ncnc3C(C)C)c3nc(-c4c(F)cccc4F)c(F)cc23)[C@@H](C)C1 [SZ-014138, reference compound] , report the class its fraction unbound at 5 h, 1 μM corresponds to.
Marked response: middle bracket

###

Catalogue of compounds with associated Binding rate to KRAS G12C protein (LC-MS POC, %) 3 uM/5 min
Experimental system: KRAS G12C protein (GDP-KRAS-4B-G12C) (Homo sapiens, UniProt P01116, G12C)
Experiment description: Assay for binding rate to KRAS G12C protein by LC-MS method
Measurement setup: 3 uM compound, 5 min incubation at room temperature
Report the figure in % without appending any unit label.

Use the examples below as a reference point.
C=CC(=O)N1CCN(c2nc(=O)n(-c3c(C(C)C)ncnc3C(C)C)c3c2cc(F)c(-c2cc(F)ccc2O)[n+]3[O-])[C@@H](C)C1 ... 84.1
C=CC(=O)N1CCN(c2nc(=O)n(-c3c(C(C)C)ncnc3C(C)C)c3c2cc(F)c(-c2c(F)cccc2F)[n+]3[O-])[C@@H](C)C1 ... 85.6

Exam item: Write Binding rate to KRAS G12C protein (LC-MS POC, %) 3 uM/5 min of C=CC(=O)N1CCN(c2nc(=O)n(-c3c(C(C)C)ncnc3C(C)C)c3c2cc(F)c(-c2cccc(F)c2O)[n+]3[O-])[C@@H](C)C1 ; system used: KRAS G12C protein (GDP-KRAS-4B-G12C) (Homo sapiens, UniProt P01116, G12C)
Marked response: 58.5

###

Experiment description: Plasma protein binding (PPB), RED plate dialysis, human plasma
Format: in vitro ADME
Measurement setup: 1 μM, 37° C., 5 h, read-out: PPB (% free state) H
Method: Human (H), Rat (R) and Mouse (M) Plasma Protein Binding (PPB) A test compound and a positive control were each mixed with blank plasma to a final concentration of 1 μM. The mixture was added to a RED plate plasma sample chamber, followed by addition of a dialysis buffer in the buffer chamber. The sample was prepared in triplicate for each compound. […] After centrifugation at 5594 g for 15 min, the supernatant was collected and analyzed by LC/MS/MS. […]
Ranges used to classify fraction unbound at 5 h, 1 μM: bin 0 = under 0.04, bin 1 = from 0.04 up to 0.1, bin 2 = 0.1 and over

C=CC(=O)N1CCN(c2nc(=O)n(-c3c(C(C)C)cccc3C(C)C)c3nc(-c4ccccc4)c(F)cc23)[C@@H](C)C1 [SZ-014142, reference compound] ... bin 0
C=CC(=O)N1CCN(c2nc(=O)n(-c3c(C(C)C)ncnc3C(C)C)c3c2cc(F)c(-c2ccccc2)[n+]3[O-])[C@@H](C)C1 [SZ-014129] ... bin 2
C=C(F)C(=O)N1CCN(c2nc(=O)n(-c3c(C(C)C)ncnc3C(C)C)c3nc(-c4c(F)cccc4F)c(F)cc23)[C@@H](C)C1 [SZ-014137, reference compound] ... bin 1
C=CC(=O)N1CCN(c2nc(=O)n(-c3c(C(C)C)ncnc3C(C)C)c3c2cc(F)c(-c2c(F)cccc2F)[n+]3[O-])[C@@H](C)C1 [SZ-014053] ... bin 2

Exam item: For the record C=CC(=O)N1CCN(c2nc(=O)n(-c3c(C)ccnc3C(C)C)c3nc(-c4c(O)cccc4F)c(F)cc23)[C@@H](C)C1 [SZ-014004A, reference compound] , report the class its fraction unbound at 5 h, 1 μM corresponds to.
Marked response: bin 1

Exam item: For the record C=CC(=O)N1CCN(c2nc(=O)n(-c3c(C(C)C)cccc3C(C)C)c3c2cc(F)c(-c2ccccc2)[n+]3[O-])[C@@H](C)C1 [SZ-014130] , report the class its fraction unbound at 5 h, 1 μM corresponds to.
Marked response: bin 1

Exam item: For the record C=CC(=O)N1CCN(c2nc(=O)n(-c3c(C(C)C)cccc3C(C)C)c3nc(-c4c(F)cccc4F)c(F)cc23)[C@@H](C)C1 [SZ-014139, reference compound] , report the class its fraction unbound at 5 h, 1 μM corresponds to.
Marked response: bin 0

Exam item: For the record C=CC(=O)N1CCN(c2nc(=O)n(-c3c(C(C)C)ncnc3C(C)C)c3nc(-c4c(F)cccc4F)c(F)cc23)[C@@H](C)C1 [SZ-014138, reference compound] , report the class its fraction unbound at 5 h, 1 μM corresponds to.
Marked response: bin 2
